# Test system: OVCAR-3 ovarian
# experiment.notes: NCI-60 one-dose screen, 48 h
# condition.set: 10 µM unless noted
Compounds without any hit were thinned out: in the full panel of roughly 83,000, 20% have a hit. The source made the active and inactive calls. The calls were made as follows: active = growth percent below 10; inactive = the rest.
Mark one answer only. Choices: class 1 (active), class 0 (inactive)

// known answers, use as guide
* COc1ccc(CN2c3ccccc3Sc3ccccc32)cc1F | class 1
* Cn1cc(-c2nonc2-c2cn(C)c3ccccc23)c2ccccc21 | class 1
* Cn1cc(-c2ccc3nc(-c4ccc(CC(=O)ONc5cc(C(C)(C)C)on5)cc4)cnc3c2)cn1 | class 0
* CSc1nnc(-c2cc3c([nH]c4ccccc43)c(-c3cccc(O)c3)n2)n1-c1ccccc1 | class 1
* CCOC(=O)C1=C(C)NC(=O)NC1c1c(Cl)n(CCCl)c2ccccc12 (stereo not drawn) | class 0

Returns: the outcome recorded for "CCOC(=O)[C@@H]1CSC(CC)=C(C(=O)O)N1" in this assay.
class 0

Returns: the outcome recorded for "Cn1ccnc1C(=O)/C=C/c1ccc(C(=O)Nc2ccccc2O)cc1" in this assay.
class 1

Returns: the outcome recorded for "CCn1c(SCC(=O)N/N=C(\C)c2ccc(Cl)cc2)nc2c1c(=O)n(C)c(=O)n2C" in this assay.
class 0

Returns: the outcome recorded for "Cc1ccc(CNc2ccc3nc(CCC4CCCCC4)[nH]c3c2)cc1" in this assay.
class 0

Returns: the outcome recorded for C#CCNC(=O)[C@H](CC)[C@H]1CC[C@H](C)[C@H]([C@@H](C)[C@H](O)[C@H](C)C(=O)[C@H](CC)C2O[C@]3(C=CC(=O)[C@]4(CC[C@@](C)([C@H]5CC[C@](O)(CC)[C@H](C)O5)O4)O3)[C@H](C)C[C@@H]2C)O1 (stereo partly drawn) in this assay.
class 1

###

# System: SK-MEL-2 melanoma
# experiment.notes: NCI-60 one-dose screen, 48 h
# condition.set: 10 µM unless noted
# Protocol: Growth inhibition of the SK-MEL-2 human tumor cell line is measured as a screen for anti-cancer activity. Cells are grown in 96 well plates and exposed to the test compound for 48 hours. Compounds are tested at a single concentration, which is 10^-5 M for most compounds. The reported endpoint is percent growth (GI% or GIPRCNT), where numbers from 0 - 100% represent growth inhibition, and numbers from -100% - 0 represent cell death. For example, a value of 40 represents 60% growth inhibition. […]
The panel holds about 83,000 compounds, 20% with a hit somewhere; the sample as a whole holds those more often. The source made the active and inactive calls. Rule for the calls: active = growth percent below 10; inactive = the rest.
Mark one answer only. Choices: 1.0 for active, 0.0 for inactive

- [O-]/[N+](=C\c1ccc(-n2cc(Cc3ccccc3Cc3cn(-c4ccc(/C=[N+](/[O-])c5ccccc5)cc4)nn3)nn2)cc1)c1ccccc1: 0.0
- CCC(C)(C)C(=O)O[C@H]1C[C@@H](C)C=C2C=C[C@H](C)[C@H](CC[C@@H]3CC(SCCN)CC(=O)O3)[C@H]21 (some centres undefined): 0.0
- O=C(N/N=C/c1ccc(Cl)cc1)c1[nH]c2ccc(Cl)cc2c1-c1ccccc1: 1.0

We next turn to a different compound, shown below.
Returns: the outcome recorded for "O=C(/C=C/c1cccs1)Nc1ncc(Cc2ccccc2F)s1" in this assay.
0.0

###

Each entry below carries its reported growth.
# System: A549/ATCC NSCLC
# experiment.notes: NCI-60 one-dose screen, 48 h (100 = growth as untreated, 0 = no growth, -100 = all killed)
# condition.set: 10 µM unless noted
# Procedure: Growth inhibition of the A549/ATCC human Non-Small Cell Lung tumor cell line is measured as a screen for anti-cancer activity. Cells are grown in 96 well plates and exposed to the test compound for 48 hours. Compounds are tested at a single concentration, which is 10^-5 M for most compounds. The reported endpoint is percent growth (GI% or GIPRCNT), where numbers from 0 - 100% represent growth inhibition, and numbers from -100% - 0 represent cell death. […]
About 83,000 compounds went through this panel and 20% of them were active in at least one assay; those are over-represented in the sample as a whole.
Enter your answer as a number in %; do not include the unit.

Some solved entries appear below for comparison.
* O=C1/C(=C\c2ccc3nccnc3c2)SC(=S)N1CCc1ccc(O)cc1 | 101
* Cc1ccc(/C=C2\COc3ccc(O)cc3C2=O)cc1 | 89.7
* CCOC(=O)c1cc2c(n1C)-c1nc(NC(C)=O)sc1CCC2 | 64.8
* CCOC(=O)c1ccc(NC(=O)c2nc(-c3cc(OC)c(OC)c(OC)c3)n(-c3ccc(Cl)cc3)n2)cc1 | 88.9
* O=C(O)c1cn(C2CC2)c2cc(N3CCN(Cc4ccc5ccccc5c4O)CC3)c(F)cc2c1=O | -23.4

Sample Cc1ccc(C2=Nc3c(N)ncnc3NC(c3cccc(Nc4ccnc5cc(C(F)(F)F)ccc45)c3)C2)cc1 (stereo not given) — what was its growth?
24.6

Sample "O=C(Nn1c2c(sc1=NC1CC1)C(=O)c1ccccc1C2=O)c1cc2ccc1CCc1ccc(cc1)CC2" — what was its growth?
67.7

Sample CN(C)CC1CCC(CN(C)C)C1=O (stereo not given) — what was its growth?
110

Sample "O=S(=O)(NCCNc1nccc(-c2c(-c3ccc(F)c(O)c3)nc3occn23)n1)c1ccc(Cl)cc1" — what was its growth?
77.9

Sample "CCOC(=O)c1csc(NC(=O)COc2ccc(/C=C3\Oc4ccccc4C3=O)cc2)n1" — what was its growth?
88.7
